# study.system: Sodium- and chloride-dependent GABA transporter 3 (Homo sapiens)
# Sequence (P48066 whole entry): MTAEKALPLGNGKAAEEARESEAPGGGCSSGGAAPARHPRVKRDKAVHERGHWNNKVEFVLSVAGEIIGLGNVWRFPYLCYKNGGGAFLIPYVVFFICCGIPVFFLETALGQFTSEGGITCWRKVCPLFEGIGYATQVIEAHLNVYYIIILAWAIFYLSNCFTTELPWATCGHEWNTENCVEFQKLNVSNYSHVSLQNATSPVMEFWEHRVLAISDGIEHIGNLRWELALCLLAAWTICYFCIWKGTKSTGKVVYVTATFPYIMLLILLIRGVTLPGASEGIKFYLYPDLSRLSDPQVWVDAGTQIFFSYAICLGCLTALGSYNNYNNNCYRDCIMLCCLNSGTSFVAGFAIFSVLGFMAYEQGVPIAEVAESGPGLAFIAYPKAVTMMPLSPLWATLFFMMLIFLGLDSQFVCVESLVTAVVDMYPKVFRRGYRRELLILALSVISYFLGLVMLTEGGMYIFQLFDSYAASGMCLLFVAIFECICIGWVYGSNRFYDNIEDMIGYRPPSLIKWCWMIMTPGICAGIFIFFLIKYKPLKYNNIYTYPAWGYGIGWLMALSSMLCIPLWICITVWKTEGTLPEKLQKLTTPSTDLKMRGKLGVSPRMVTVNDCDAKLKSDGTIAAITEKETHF
value.kind: Ki (µM)
Just the number in µM, nothing appended.

Report Ki for "COc1ccc(C2(O)CCN(CCCn3c4ccccc4c4ccccc43)CC2)cc1" 6.1

---

# assay.comment: Inhibition of GAT1-mediated [3H]GABA uptake in bovine frontal cortex
# Format: tissue-based, Bos taurus
Can you tell me IC50 for the items I'm about to list?
Report field: quantity (unit follows the number).

Return the recorded IC50 value; entry: "COc1ccc(C2(O)CN(CCC=C(c3ccccc3)c3ccccc3)C2)cc1" 26.6 µM

Please look at this molecule and report its IC50: "COc1ccc(C2(O)CN(CCOC(c3ccc(OC)cc3)(c3ccc(OC)cc3)c3ccc(OC)cc3)C2)cc1" 77.5 µM

Tell me its IC50 given "O=C(O)C1CNC1" as the entry. 1550 µM

Read the entry "O=C(O)CC1CNC1" and write its reported IC50. 43.3 µM

Give the reported value of IC50 for this record: O=C(O)CC1CCN1CCC=C(c1ccccc1)c1ccccc1 (racemic) 2.83 µM

Provide only the value of recorded IC50 for "O=C(O)[C@@H]1CCN1" 1950 µM

Look up and report measured IC50 for this entry: "COc1ccc(C2(O)CN(CCC=C(c3sccc3C)c3sccc3C)C2)cc1" 39.5 µM

For the molecule O=C(O)CC1CCN1 (stereo not drawn) , give its reported IC50. 111 µM
